Settings: in n-butanol, 308.15 K
Observed Property: solubility (mole fraction)
Just the number, please, no unit after it.

Field solubility (mole fraction) (entry `CC(C)C(=O)Nc1ccc([N+](=O)[O-])c(C(F)(F)F)c1` ) reads 0.103

* * *

Conditions: in THF, 278.15 K
Observed Property: solubility (mole fraction)

Field solubility (mole fraction) (entry `CC(C)C(=O)Nc1ccc([N+](=O)[O-])c(C(F)(F)F)c1` ) reads 0.259

* * *

Conditions: in n-propanol, 288.15 K
Observed Property: solubility (mole fraction)

Field solubility (mole fraction) (entry `CC(C)C(=O)Nc1ccc([N+](=O)[O-])c(C(F)(F)F)c1` ) reads 0.0624

* * *

Conditions: in acetonitrile, 303.15 K
Observed Property: solubility (mole fraction)
Just the number, please, no unit after it.

Field solubility (mole fraction) (entry `CC(C)C(=O)Nc1ccc([N+](=O)[O-])c(C(F)(F)F)c1` ) reads 0.197

* * *

Conditions: in acetone, 293.15 K
Observed Property: solubility (mole fraction)
Just the number, please, no unit after it.

Field solubility (mole fraction) (entry `CC(C)C(=O)Nc1ccc([N+](=O)[O-])c(C(F)(F)F)c1` ) reads 0.258

* * *

Conditions: in isopropanol, 318.15 K
Observed Property: solubility (mole fraction)
Just the number, please, no unit after it.

Field solubility (mole fraction) (entry `CC(C)C(=O)Nc1ccc([N+](=O)[O-])c(C(F)(F)F)c1` ) reads 0.161

* * *

Details: in acetone, 308.15 K
Observed Property: solubility (mole fraction)

Field solubility (mole fraction) (entry `CC(C)C(=O)Nc1ccc([N+](=O)[O-])c(C(F)(F)F)c1` ) reads 0.366

* * *

Details: in 1,4-dioxane, 298.15 K
Observed Property: solubility (mole fraction)
Just the number, please, no unit after it.

Field solubility (mole fraction) (entry `CC(C)C(=O)Nc1ccc([N+](=O)[O-])c(C(F)(F)F)c1` ) reads 0.177

* * *

Details: in n-butanol, 298.15 K
Observed Property: solubility (mole fraction)
Just the number, please, no unit after it.

Field solubility (mole fraction) (entry `CC(C)C(=O)Nc1ccc([N+](=O)[O-])c(C(F)(F)F)c1` ) reads 0.0797

* * *

Details: in 1,4-dioxane, 323.15 K
Observed Property: solubility (mole fraction)
Just the number, please, no unit after it.

Field solubility (mole fraction) (entry `CC(C)C(=O)Nc1ccc([N+](=O)[O-])c(C(F)(F)F)c1` ) reads 0.348

* * *

Conditions: in ethanol, 288.15 K
Observed Property: solubility (mole fraction)

Field solubility (mole fraction) (entry `CC(C)C(=O)Nc1ccc([N+](=O)[O-])c(C(F)(F)F)c1` ) reads 0.063

* * *

Conditions: in isopropanol, 293.15 K
Observed Property: solubility (mole fraction)
Just the number, please, no unit after it.

Field solubility (mole fraction) (entry `CC(C)C(=O)Nc1ccc([N+](=O)[O-])c(C(F)(F)F)c1` ) reads 0.0799
